# credit: patent US20160137639A1

Target: mouse RORγ (Mus musculus, UniProt P51450)
Construct: mouse, NM_011281.2 and from Ile251 to Lys516; expressed in transfected cells; host or cells: CHO cells (transient co-transfection with pG5-Luc reporter)
Sequence (P51450 251-516): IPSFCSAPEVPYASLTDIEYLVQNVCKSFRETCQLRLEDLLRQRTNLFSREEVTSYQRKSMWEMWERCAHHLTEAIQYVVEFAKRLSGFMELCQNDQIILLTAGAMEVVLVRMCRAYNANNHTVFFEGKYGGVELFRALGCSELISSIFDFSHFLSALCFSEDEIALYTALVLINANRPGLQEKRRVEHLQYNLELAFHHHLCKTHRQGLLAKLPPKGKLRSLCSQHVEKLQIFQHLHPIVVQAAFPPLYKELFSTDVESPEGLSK
Assay: Luciferase reporter gene assay of inhibitory effect against RORγ transcriptional activity (GAL4-mRORγ plasmid in CHO cells)
Assay type: cell-based
Details: LUC EC50 (μM) mRORg
recorded.endpoint: EC50

> print(dat)
                                   compound  result
1  CCn1c(CCC(=O)NC2CCCc3ccccc32)nnc1C1Cc2ccccc2C1 (centres unmarked) [Example F-10]  > 3 µM

Field: next compound
Would you mind telling me what EC50 value was observed for CC(C)Cn1c(CCC(=O)Nc2cccc3ccccc23)nnc1C1Cc2ccccc2C1 [Example F-11] ?
> 3 µM
